Sourced from patent US20210130436A1

Would you mind telling me the reported Fold change to WT CD80 of each entry?
Target: T1, human CTLA4 (CTLA-4), full-length, on CHO cells (human, UniProt P16410 36-223)
T1 construct: also called huCTLA4
T1 sequence (P16410 36-223): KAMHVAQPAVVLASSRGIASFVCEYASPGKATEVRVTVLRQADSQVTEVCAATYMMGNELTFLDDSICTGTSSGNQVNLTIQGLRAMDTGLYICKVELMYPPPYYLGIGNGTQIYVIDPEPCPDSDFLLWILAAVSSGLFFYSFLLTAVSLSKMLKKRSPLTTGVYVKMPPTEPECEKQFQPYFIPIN
Assay: flow cytometry, CHO/CTLA4 cells; MFI relative to WT CD80 ECD-Fc
Please give a number only; it is taken to be in fold.

Q: Which Fold change to WT CD80 is reported for this binder? variant CD80 IgV-Fc M47L/V68M/L85Q (Fc fusion, not shown: small tags and cut ends; a dimerising Fc or GST) VIHVTKEVKEVATLSCGHNVSVEELAQTRIYWQKEKKMVLTMMSGDLNIWPEYKNRTIFDITNNLSIMILALRPSDEGTYECVVQKYEKDAFKREHLAEVTLSVKAD
Ans: 0.3

Q: Which Fold change to WT CD80 is reported for this binder? variant CD80 IgV-Fc E35D/M47L/L85Q (Fc fusion, not shown: small tags and cut ends; a dimerising Fc or GST) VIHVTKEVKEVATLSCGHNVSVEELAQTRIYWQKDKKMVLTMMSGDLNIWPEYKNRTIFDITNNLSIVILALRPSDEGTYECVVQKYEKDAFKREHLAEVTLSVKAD
Ans: 0.3

Q: Which Fold change to WT CD80 is reported for this binder? variant CD80 IgV-Fc N48K (Fc fusion, not shown: small tags and cut ends; a dimerising Fc or GST) VIHVTKEVKEVATLSCGHNVSVEELAQTRIYWQKEKKMVLTMMSGDMKIWPEYKNRTIFDITNNLSIVILALRPSDEGTYECVVLKYEKDAFKREHLAEVTLSVKAD
Ans: 0.1

Q: Which Fold change to WT CD80 is reported for this binder? variant CD80 IgV-Fc M47V/V68M (Fc fusion, not shown: small tags and cut ends; a dimerising Fc or GST) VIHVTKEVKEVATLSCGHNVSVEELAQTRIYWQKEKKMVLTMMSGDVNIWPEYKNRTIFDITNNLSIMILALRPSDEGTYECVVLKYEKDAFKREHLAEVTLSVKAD
Ans: 0.2

Q: Which Fold change to WT CD80 is reported for this binder? variant CD80 IgV-Fc E35D/N48K (Fc fusion, not shown: small tags and cut ends; a dimerising Fc or GST) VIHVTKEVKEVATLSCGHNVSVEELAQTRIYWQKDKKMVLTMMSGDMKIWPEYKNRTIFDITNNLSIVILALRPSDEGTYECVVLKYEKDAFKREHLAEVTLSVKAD
Ans: 1

Q: Which Fold change to WT CD80 is reported for this binder? variant CD80 IgV-Fc M47L (Fc fusion, not shown: small tags and cut ends; a dimerising Fc or GST) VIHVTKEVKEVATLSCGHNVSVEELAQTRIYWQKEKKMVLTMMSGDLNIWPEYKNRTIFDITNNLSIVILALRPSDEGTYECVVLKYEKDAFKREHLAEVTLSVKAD
Ans: 0.8

Q: Which Fold change to WT CD80 is reported for this binder? variant CD80 IgV-Fc E35D/M47L (Fc fusion, not shown: small tags and cut ends; a dimerising Fc or GST) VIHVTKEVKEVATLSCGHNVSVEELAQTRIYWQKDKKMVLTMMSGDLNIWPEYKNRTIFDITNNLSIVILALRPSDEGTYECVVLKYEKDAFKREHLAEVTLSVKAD
Ans: 1.2

Q: Which Fold change to WT CD80 is reported for this binder? variant CD80 IgV-Fc K89N (Fc fusion, not shown: small tags and cut ends; a dimerising Fc or GST) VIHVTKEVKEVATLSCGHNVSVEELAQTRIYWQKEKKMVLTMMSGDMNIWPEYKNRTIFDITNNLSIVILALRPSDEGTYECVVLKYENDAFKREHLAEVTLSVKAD
Ans: 0
